Target: Corticotropin-releasing factor receptor 2/Corticotropin-releasing factor-binding protein (Homo sapiens, UniProt P24387+Q13324)
Sequence (Q13324 whole entry): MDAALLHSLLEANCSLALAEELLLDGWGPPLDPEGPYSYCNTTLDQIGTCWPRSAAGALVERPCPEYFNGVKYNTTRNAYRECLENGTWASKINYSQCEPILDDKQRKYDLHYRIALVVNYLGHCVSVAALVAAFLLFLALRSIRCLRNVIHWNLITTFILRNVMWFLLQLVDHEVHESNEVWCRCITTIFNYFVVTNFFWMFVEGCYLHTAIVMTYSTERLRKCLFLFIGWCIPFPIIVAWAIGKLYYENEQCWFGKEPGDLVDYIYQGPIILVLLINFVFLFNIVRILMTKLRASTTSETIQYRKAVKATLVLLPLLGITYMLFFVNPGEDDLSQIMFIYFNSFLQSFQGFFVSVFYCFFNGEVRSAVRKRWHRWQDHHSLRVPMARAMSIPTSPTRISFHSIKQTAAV
Sequence (P24387 whole entry): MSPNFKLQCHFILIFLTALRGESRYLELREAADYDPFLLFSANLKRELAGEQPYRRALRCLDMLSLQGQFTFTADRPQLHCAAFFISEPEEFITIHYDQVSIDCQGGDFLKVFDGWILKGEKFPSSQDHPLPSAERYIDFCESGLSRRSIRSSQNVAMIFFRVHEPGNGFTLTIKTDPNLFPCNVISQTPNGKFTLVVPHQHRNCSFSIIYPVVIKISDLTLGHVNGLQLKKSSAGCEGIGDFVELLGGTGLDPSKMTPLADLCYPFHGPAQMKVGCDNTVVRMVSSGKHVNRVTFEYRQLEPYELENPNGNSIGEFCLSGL
Test: activators of CRF receptor 2 with binding protein – uHTS hits, confirmation (AID 602473)
Assay type: functional
Conditions: read-out: EC50_Mean
Active and inactive are the calls of the source.
Classes used: yes for active, no for inactive

{"columns": ["smiles.text", "assigned.class"],
 "data": [
  ["O=C(Cn1cnc([N+](=O)[O-])n1)NCCc1ccccc1", "no"],
  ["CC(=O)N[C@H]1C[C@@H]1c1ccccc1", "no"],
  ["Cc1ccc(CN2CCSc3ccc(C(=O)N4CCN(c5ncccn5)CC4)cc32)cc1", "no"],
  ["Cc1cccc(C(=O)Oc2ccc(/C=N/NC(=O)c3ccc(O)cc3)cc2)c1", "no"],
  ["COc1ccc(/C=C2\\CCc3ccccc3C2=O)c(OC)c1OC", "no"],
  ["COCCNC(=S)N/N=C/c1ccc(-c2ccc([N+](=O)[O-])cc2)o1", "yes"]
]}

---

Biological target: Zinc finger protein mex-5 (Caenorhabditis elegans)
Sequence (Q9XUB2 whole entry): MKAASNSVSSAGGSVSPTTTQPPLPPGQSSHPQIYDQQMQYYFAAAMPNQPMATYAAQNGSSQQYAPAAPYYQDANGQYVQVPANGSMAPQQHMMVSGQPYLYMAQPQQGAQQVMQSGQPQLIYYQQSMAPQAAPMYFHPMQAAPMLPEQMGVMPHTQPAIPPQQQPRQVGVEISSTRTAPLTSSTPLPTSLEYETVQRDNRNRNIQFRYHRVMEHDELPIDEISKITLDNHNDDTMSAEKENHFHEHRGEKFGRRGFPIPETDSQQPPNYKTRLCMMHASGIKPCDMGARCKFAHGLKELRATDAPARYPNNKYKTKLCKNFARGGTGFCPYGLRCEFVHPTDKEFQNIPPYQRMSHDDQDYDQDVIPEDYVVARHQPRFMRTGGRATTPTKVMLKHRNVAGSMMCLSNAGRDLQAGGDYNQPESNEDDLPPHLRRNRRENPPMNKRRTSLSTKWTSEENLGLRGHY
Experiment: MEX-5/TCR-2 RNA interaction inhibitors, dose response, biochemical, C. elegans, fluorescence polarization (AID 1960)
Active and inactive are the calls of the source.
Reported EC50 values are given for each entry in this list.
measured.metric: EC50

{"columns": ["smiles.text", "reported"],
 "data": [
  ["Cc1ccc2cc(/C=C3\\N=C(c4ccccc4)OC3=O)c(N3CCOCC3)nc2c1", "> 300 µM (inconclusive)"],
  ["CCCCN1C(=O)/C(=C2/Sc3ccc(OC)cc3N2CC)SC1=S", "> 300 µM (inconclusive)"],
  ["OCCCNc1ncnc2sc3c(c12)CCN(Cc1ccccc1)C3", "24.9 µM (active)"],
  ["O=S(=O)(NNC(=S)Nc1ccc(S(=O)(=O)Nc2ncccn2)cc1)c1ccc(Br)cc1", "5.04 µM (active)"],
  ["CCOc1cc(/C=C2/C(=O)ON=C2C)ccc1OCc1ccccc1F", "37.3 µM (inconclusive)"]
]}

---

As a worked illustration, we turn to AC50 data collected for Cytochrome P450 1A2 (Homo sapiens).
Where a name gives a salt, the structure may show the parent alone.

{"columns": ["compound", "AC50"],
 "data": [
  ["CC1CCCN(C(=O)c2sc3cc([N+](=O)[O-])ccc3c2Cl)C1 (stereo not given)", "15.8 µM (inconclusive)"],
  ["O=C(N/N=C/C=C/c1ccccc1)c1cc2c(ccc3ccccc32)o1", "0.0447 µM (inconclusive)"],
  ["CCc1ccccc1NC(=O)C1C(c2ccccc2)C1(Cl)Cl (stereo not given)", "17.8 µM (inconclusive)"],
  ["C[N+](C)(CCCOc1ccccc1)c1ccccc1.O=C([O-])c1cc2ccccc2cc1O", "12.6 µM (inconclusive)"],
  ["CC[N+](CC)(CCCNC1=CC(=O)C(NCCC[N+](CC)(CC)Cc2ccccc2)=CC1=O)Cc1ccccc1 [BENZOQUINONIUM]", "31.6 µM (inconclusive)"],
  ["O=C(O)C=Cc1ccc(Cn2ccnc2)cc1", "31.6 µM (inconclusive)"],
  ["COc1ccc(C(=O)Nc2ccc(Cl)cc2C(=O)NCCN2CCOCC2)cc1", "22.4 µM (inconclusive)"],
  ["COCCn1c(=O)c(-c2cn(C)c3ccccc23)nc2cnc(N3CCNCC3)nc21", "12.6 µM (inconclusive)"],
  ["CN1C[C@H](C(=O)N[C@@]2(C)O[C@@]3(O)[C@H]4CCCN4C(=O)[C@@H](Cc4ccccc4)N3C2=O)C=C2c3cccc4[nH]cc(c34)C[C@@H]21", "3.16 µM (inconclusive)"],
  ["CS(=O)(=O)N1CCC[C@@]2(CCN(c3ccccc3)C2)C1", "31.6 µM (inconclusive)"],
  ["C/C1=N/NC(=S)NCCCN2CCN(CCCNC(=S)N/N=C(/C)C=NNC(=S)NCCCN3CCN(CCCNC(=S)NN=C1)CC3)CC2", "3.16 µM (inconclusive)"],
  ["COc1ccc(C(=O)N2CC3(CC(c4cccc([N+](=O)[O-])c4)=NO3)C[C@H]2C(=O)NCC(N)=O)cc1 (stereo not given in full)", "28.2 µM (inconclusive)"],
  ["COc1ccc(CCn2c(=N)c(C(=O)NCc3ccco3)cc3c(=O)n4ccccc4nc32)cc1", "15.8 µM (inconclusive)"],
  ["CN1CCN(CCCN2c3ccccc3Sc3ccc(S(=O)(=O)N(C)C)cc32)CC1 [THIOPROPERAZINE MESYLATE]", "12.6 µM (inconclusive)"],
  ["Nc1ncnc2c1ncn2C1CCCC1", "20 µM (inconclusive)"]
]}

---

Reported AC50 values are given for each entry in this list.
Molecular target: Paired box protein Pax-8 (Homo sapiens)
Sequence (Q06710 whole entry): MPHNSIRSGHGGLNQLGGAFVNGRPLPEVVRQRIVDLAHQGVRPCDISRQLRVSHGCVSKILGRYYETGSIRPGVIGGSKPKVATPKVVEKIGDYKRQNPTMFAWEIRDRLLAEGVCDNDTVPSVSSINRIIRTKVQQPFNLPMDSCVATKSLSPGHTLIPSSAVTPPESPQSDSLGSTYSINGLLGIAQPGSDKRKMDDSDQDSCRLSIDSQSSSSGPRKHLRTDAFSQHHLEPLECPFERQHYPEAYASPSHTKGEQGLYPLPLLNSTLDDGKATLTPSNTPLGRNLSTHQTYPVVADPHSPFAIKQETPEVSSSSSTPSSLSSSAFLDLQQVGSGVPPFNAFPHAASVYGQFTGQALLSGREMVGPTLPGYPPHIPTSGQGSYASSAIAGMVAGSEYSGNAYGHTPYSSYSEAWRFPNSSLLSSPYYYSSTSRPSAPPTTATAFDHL
Test: inhibitors of PAX8-driven TPO luciferase reporter, dose response, RMG-I cells, cherry-pick (AID 687027);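 note: luciferase reporter driven by Pax8 target thyroperoxidase promoter measured by SteadyGlo luminescence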
Type: functional, cell-based
Active and inactive are the calls of the source.

{"columns": ["molecule", "AC50"],
 "data": [
  ["CC(=O)n1cc(N(C(=O)CCl)c2ccccc2)c2ccccc21", "1.34 µM (active)"],
  ["COC(=O)[C@H]1[C@@H](O)[C@@]2(O)c3c(OC)cc(OC)cc3O[C@@]2(c2ccc(OC)cc2)[C@@H]1c1ccc(F)cc1", "0.465 µM (active)"],
  ["Cc1ccc(S(=O)(=O)Nc2ccc3c(c2)C(=O)N([C@H](C)CO)C[C@H](C)[C@@H](CN(C)S(=O)(=O)c2cccs2)OCCCC[C@H](C)O3)cc1", "4.23 µM (active)"],
  ["CC(=O)c1sc(NC(=O)CCS(=O)(=O)c2ccc(Cl)cc2)nc1C", "5.01 µM (active)"],
  ["C[C@]12CC[C@H](O)C[C@H]1CC[C@@H]1[C@@H]2CC[C@]2(C)[C@@H](C3=CC(=O)OC3)CC[C@]12O [DIGITOXIGENIN]", "1.38 µM (active)"],
  ["CCN(CC)CCCNc1[nH]c2ccccc2c2nc3ccc(OC)cc3c1-2", "6.91 µM (active)"],
  ["COCCNC(=O)C[C@@H]1C[C@H]2c3cc(NC(=O)Nc4ccc(C(F)(F)F)cc4)ccc3O[C@H]2[C@H](CO)O1", "26.6 µM (active)"],
  ["CCC(=O)Oc1ccc2c(C)cc(=O)oc2c1C(=O)c1ccccc1", "42.4 µM (active)"],
  ["C[C@H]1CN([C@@H](C)CO)C(=O)Cc2cc(NC(=O)Nc3ccc4c(c3)OCO4)ccc2O[C@@H]1CN(C)Cc1ccc(-c2ccccc2)cc1", "5.45 µM (active)"],
  ["COc1ccc(S(=O)(=O)Nc2ccc3c(c2)C(=O)N([C@@H](C)CO)C[C@H](C)[C@H](CN(C)Cc2ccc(C(F)(F)F)cc2)OCCCC[C@H](C)O3)cc1", "5.59 µM (active)"],
  ["O=C(CCc1ccc(S(=O)(=O)NCc2ccccc2)cc1)NCc1ccco1", "47.9 µM (active)"],
  ["Cc1ccccc1CNC(=O)C1CCCN(c2nnc(C)c3c(C)n(-c4ccccc4)nc23)C1 (stereo not given)", "5.95 µM (active)"],
  ["Cc1ccc(Cl)cc1N1CCN(C(=O)c2noc(C)c2[N+](=O)[O-])CC1", "6.41 µM (active)"],
  ["O=C1NC2C(=CC(O)C(O)C2O)c2cc3c(cc21)OCO3 (stereo not given)", "0.325 µM (active)"],
  ["Cc1onc(C(=O)N2CCN(C(c3ccccc3)c3ccccc3)CC2)c1[N+](=O)[O-]", "5.28 µM (active)"]
]}

---

Reported EC50 values are given for each entry in this list.
Assay: growth suppression of PTEN-null colon cells, dose response, cell-based, HCT116 PTEN knockout (AID 1047);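 note: HCT116 colon tumor cells with PTEN knocked out; cells exposed to compound for 60 hours before readout; potency for loss of cell viability measured by luminescence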
Assay type: functional
The source made the active and inactive calls.

{"columns": ["smiles.text", "EC50"],
 "data": [
  ["O=C(Nc1ccc2c(c1)OCCO2)c1cccc2nc3ccccc3nc12", "93.9 µM (active)"],
  ["O=C(NCc1cccnc1)/C(=C\\c1ccc(-c2cccc(Cl)c2)o1)S(=O)(=O)c1ccccc1", "3.2 µM (active)"],
  ["CCOC(=O)C(C(=O)OCC)c1cc(Br)c2noc3c2c1C(=O)c1ccccc1-3", "10.2 µM (active)"],
  ["CN(C)CCNC=C(C(=O)Nc1ccc(Cl)cc1Cl)C(=O)Nc1ccc(Cl)cc1Cl", "17.2 µM (active)"],
  ["Cc1nc(-c2cccnc2)sc1C(=O)Nc1cccc(C(F)(F)F)c1", "15.7 µM (active)"],
  ["c1ccc(N2CCN(c3ncnc4scc(-c5cccs5)c34)CC2)cc1", "56.8 µM (active)"]
]}

Data origin, for the record: ChEMBL document CHEMBL1201862
